biological target: CAMKK2 (human); experiment: radiometric filter-binding kinase assay; details: compound 0.1 µM
quantity_name: residual activity (%)
Record the value in %, omitting the unit from your answer.

CC1=C(CO)C(=O)O[C@@H]([C@@H](C)[C@H]2CC[C@H]3[C@@H]4C[C@H]5O[C@]56[C@@H](O)C=CC(=O)[C@]6(C)C4CC[C@]23C)C1 (stereo partly drawn) : 115
COc1cc(O)c2c(c1)[C@H]1OC1C[C@H](O)[C@H](O)C(=O)/C=C\C[C@H](C)OC2=O (stereo partly drawn) : 99

Exercise: Data request, read-out residual activity, for CN(C)C/C=C/C(=O)Nc1cccc(C(=O)Nc2ccc(Nc3nccc(-c4cccnc4)n3)cc2)c1
Solution: 87

Exercise: Data request, read-out residual activity, for O=C(Nc1nc2cc(C(F)(F)F)cc(NC3CC3)n2n1)c1cccnc1
Solution: 96

Exercise: Data request, read-out residual activity, for C/C(=C1/C(=O)Nc2ccc(NC(N)=O)cc21)c1ccc[nH]1
Solution: 60

* * *

residual activity listing for selected molecules.
target: MAPK1 (human) (UniProt P28482); test: radiometric filter-binding kinase assay; conditions: compound 10.0 µM
Sequence (P28482 whole entry, looked up): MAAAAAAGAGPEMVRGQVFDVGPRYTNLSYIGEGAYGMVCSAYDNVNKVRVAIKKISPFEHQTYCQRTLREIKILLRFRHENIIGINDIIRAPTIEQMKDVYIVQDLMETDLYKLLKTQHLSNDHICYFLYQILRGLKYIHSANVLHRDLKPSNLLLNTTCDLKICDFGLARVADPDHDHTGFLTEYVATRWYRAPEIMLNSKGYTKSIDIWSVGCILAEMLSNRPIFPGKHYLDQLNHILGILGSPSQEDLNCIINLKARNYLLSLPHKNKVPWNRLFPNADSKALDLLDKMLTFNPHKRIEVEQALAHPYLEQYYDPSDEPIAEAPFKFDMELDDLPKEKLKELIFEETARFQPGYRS
Record the value in %, omitting the unit from your answer.

Before answering, review these 5 worked examples.
Cc1ccc(Sc2cnc(Nc3cccc(Br)n3)s2)cc1C(=O)N1CCN(C(=O)CN)CC1 : 85
N#Cc1c(C2CCNCC2)cc(-c2c(O)cccc2OCC2CC2)nc1N : 76
Oc1ccc(/C=C/c2cc(O)cc(O)c2)cc1 : 79
c1ccc2c(-c3cnn4cc(-c5ccc(N6CCNCC6)cc5)cnc34)ccnc2c1 : 107
CCOC(=O)c1ccc(N2NC(=O)/C(=C/c3ccc([N+](=O)[O-])o3)C2=O)cc1 : 82

# next molecule below
Exercise: Data request, read-out residual activity, for COC(=O)/C=C/C(=O)OC
Solution: 85

* * *

residual activity listing for selected compounds.
target: CHEK1 (human); test: radiometric filter-binding kinase assay; conditions: compound 10.0 µM

Before answering, review these 5 worked examples.
NC(=O)c1cc(-c2ccnc(NC3CCCCC3)c2)nc(N2CCNCC2)c1 : 70%
O=C1NC(=S)N[C@@H]1Cc1c[nH]c2ccccc12 : 81%
NC(=O)c1ccc(-c2ccc(Oc3cncc4sc(-c5nn[nH]n5)cc34)cc2)cc1 : 87%
CCNc1nc(Nc2cc(F)c(C(=O)N3CCOCC3)cc2OC)ncc1C(F)(F)F : 12%
Cc1cccc(Nc2nn(C)c3ncnc(N)c23)c1 : 115%

Exercise: Checklist item: residual activity tested on CHEK1 (human), entry CC1=C(CO)C(=O)O[C@@H]([C@@H](C)[C@H]2CC[C@H]3[C@@H]4C[C@H]5O[C@]56[C@@H](O)C=CC(=O)[C@]6(C)C4CC[C@]23C)C1 (stereo partly specified) , value?
Solution: 117%

Exercise: Checklist item: residual activity tested on CHEK1 (human), entry COc1ccc2c(c1)c1c3c(c4c5ccccc5n(C)c4c1n2CC(O)CN(C)C)C(=O)NC3=O (stereo unspecified) , value?
Solution: 4%

Exercise: Checklist item: residual activity tested on CHEK1 (human), entry CCCC(CCC)C(=O)O , value?
Solution: 95%

Exercise: Checklist item: residual activity tested on CHEK1 (human), entry O=c1c(O)c(-c2ccc(O)c(O)c2)oc2cc(O)c(O)c(O)c12 , value?
Solution: 32%

Exercise: Checklist item: residual activity tested on CHEK1 (human), entry CCCCCc1ccc(/C=C/[C@H](O)[C@@H](CO)NC)cc1 , value?
Solution: 86%

Exercise: Checklist item: residual activity tested on CHEK1 (human), entry Cc1nc(-c2ccc(OCC(C)C)c(C#N)c2)sc1C(=O)O , value?
Solution: 86%

Exercise: Checklist item: residual activity tested on CHEK1 (human), entry NS(=O)(=O)OC[C@@H]1C[C@@H](n2ccc3c(N[C@H]4CCc5ccccc54)ncnc32)C[C@@H]1O , value?
Solution: 98%

Exercise: Checklist item: residual activity tested on CHEK1 (human), entry O=C(NOC[C@H](O)CO)c1ccc(F)c(F)c1Nc1ccc(I)cc1Cl , value?
Solution: 122%

Exercise: Checklist item: residual activity tested on CHEK1 (human), entry FC(F)(F)c1ccc(-c2ccc(Oc3cncc4sc(-c5nn[nH]n5)cc34)cc2)cc1 , value?
Solution: 65%

Exercise: Checklist item: residual activity tested on CHEK1 (human), entry CCn1c(-c2nonc2N)nc2cncc(CNC3CCNCC3)c21 , value?
Solution: 53%

* * *

target: UniProtKB Q9P0L2; assay: radiometric filter-binding kinase assay; details: compound 1.0 µM
Sequence (Q9P0L2 whole entry, looked up): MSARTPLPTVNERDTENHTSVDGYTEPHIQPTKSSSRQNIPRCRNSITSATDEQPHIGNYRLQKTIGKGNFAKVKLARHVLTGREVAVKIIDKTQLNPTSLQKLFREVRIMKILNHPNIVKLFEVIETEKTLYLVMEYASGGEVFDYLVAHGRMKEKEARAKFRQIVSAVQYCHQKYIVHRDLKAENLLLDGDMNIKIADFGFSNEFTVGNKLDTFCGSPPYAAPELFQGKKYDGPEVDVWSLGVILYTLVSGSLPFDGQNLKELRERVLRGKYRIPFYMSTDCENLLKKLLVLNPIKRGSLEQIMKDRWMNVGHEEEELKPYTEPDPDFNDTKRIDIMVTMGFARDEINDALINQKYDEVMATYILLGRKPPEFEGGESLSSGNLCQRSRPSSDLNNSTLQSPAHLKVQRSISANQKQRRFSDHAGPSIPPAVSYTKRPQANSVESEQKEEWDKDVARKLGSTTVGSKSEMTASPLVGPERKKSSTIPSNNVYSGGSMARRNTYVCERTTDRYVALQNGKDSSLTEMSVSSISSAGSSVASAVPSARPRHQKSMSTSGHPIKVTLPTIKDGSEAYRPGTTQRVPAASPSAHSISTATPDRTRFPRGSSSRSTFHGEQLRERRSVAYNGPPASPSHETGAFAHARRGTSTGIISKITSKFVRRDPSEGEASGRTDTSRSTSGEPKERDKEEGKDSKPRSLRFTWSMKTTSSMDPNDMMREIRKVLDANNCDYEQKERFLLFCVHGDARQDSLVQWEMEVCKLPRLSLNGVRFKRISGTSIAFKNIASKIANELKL
residual activity listing for selected molecules.
Record the value in %, omitting the unit from your answer.

Before answering, review these 3 worked examples.
CN(C)C/C=C/C(=O)Nc1cccc(C(=O)Nc2ccc(Nc3nccc(-c4cccnc4)n3)cc2)c1 : 80
C=C1C(=O)OC2C1CC/C(C)=C/CCC1(C)OC21 (stereo unspecified) : 100
Nc1cccc2c1CN(C1CCC(=O)NC1=O)C2=O (stereo unspecified) : 98

# next molecule below
Exercise: Data request, read-out residual activity, for CC1=C(CO)C(=O)O[C@@H]([C@@H](C)[C@H]2CC[C@H]3[C@@H]4C[C@H]5O[C@]56[C@@H](O)C=CC(=O)[C@]6(C)C4CC[C@]23C)C1 (stereo partly specified)
Solution: 115

* * *

molecular target: TLK1 (human) (UniProt Q9UKI8); test: radiometric filter-binding kinase assay; conditions: compound 1.0 µM
Sequence (Q9UKI8 whole entry, looked up): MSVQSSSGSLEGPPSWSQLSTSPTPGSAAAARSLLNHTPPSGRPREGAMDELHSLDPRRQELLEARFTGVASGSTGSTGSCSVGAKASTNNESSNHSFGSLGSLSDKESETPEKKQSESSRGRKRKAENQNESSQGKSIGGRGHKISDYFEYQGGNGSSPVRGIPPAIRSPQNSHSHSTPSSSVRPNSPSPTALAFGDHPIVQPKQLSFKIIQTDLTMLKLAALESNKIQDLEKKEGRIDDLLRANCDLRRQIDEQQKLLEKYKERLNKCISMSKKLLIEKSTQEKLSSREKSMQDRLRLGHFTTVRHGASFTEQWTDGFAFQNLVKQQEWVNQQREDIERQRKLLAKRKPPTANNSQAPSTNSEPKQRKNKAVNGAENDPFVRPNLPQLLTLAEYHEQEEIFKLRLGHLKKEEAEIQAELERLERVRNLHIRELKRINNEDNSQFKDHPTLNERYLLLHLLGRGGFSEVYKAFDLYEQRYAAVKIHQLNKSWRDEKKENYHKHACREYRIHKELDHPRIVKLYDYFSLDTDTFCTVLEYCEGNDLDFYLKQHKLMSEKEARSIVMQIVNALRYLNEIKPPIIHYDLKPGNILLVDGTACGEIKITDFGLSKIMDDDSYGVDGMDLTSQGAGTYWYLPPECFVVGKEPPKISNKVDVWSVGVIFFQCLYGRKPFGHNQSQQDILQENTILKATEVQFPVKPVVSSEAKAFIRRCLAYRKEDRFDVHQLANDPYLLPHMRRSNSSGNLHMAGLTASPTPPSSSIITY
quantity_name: residual activity (%)
Record the value in %, omitting the unit from your answer.

CN(C)C/C=C/C(=O)Nc1cccc(C(=O)Nc2ccc(Nc3nccc(-c4cccnc4)n3)cc2)c1 : 98
Cc1ccc(=O)n(-c2ccccc2)c1 : 113
C=C1C(=O)OC2C1CC/C(C)=C/CCC1(C)OC21 (centres undefined) : 108

Exercise: Data request, read-out residual activity, for NCC(=O)Nc1ccc(-n2nc(C(F)(F)F)cc2-c2ccc3c(ccc4ccccc43)c2)cc1
Solution: 89

Exercise: Data request, read-out residual activity, for C=CC(=O)N1CCC[C@@H](n2nc(-c3ccc(Oc4ccccc4)cc3)c3c(N)ncnc32)C1
Solution: 99

Exercise: Data request, read-out residual activity, for O=C(NOC[C@H](O)CO)c1ccc(F)c(F)c1Nc1ccc(I)cc1Cl
Solution: 96

Exercise: Data request, read-out residual activity, for COc1ccc(N(C(=O)Nc2c(C)cccc2C)c2cc(Nc3ccc(N4CCN(C)CC4)cc3)ncn2)c(OC)c1
Solution: 93

Exercise: Data request, read-out residual activity, for O=C(Nc1nc2cc(C(F)(F)F)cc(NC3CC3)n2n1)c1cccnc1
Solution: 90

Exercise: Data request, read-out residual activity, for Cc1nc(-c2ccc(OCC(C)C)c(C#N)c2)sc1C(=O)O
Solution: 86

Exercise: Data request, read-out residual activity, for O=C(NOCC(O)CO)c1ccc(F)c(F)c1Nc1ccc(I)cc1Cl (centres undefined)
Solution: 95

Exercise: Data request, read-out residual activity, for COc1cc(C(=O)N2CCOCC2)c(F)cc1Nc1ncc(C(F)(F)F)c(NC2CC2)n1
Solution: 106

Exercise: Data request, read-out residual activity, for Nc1cccc2c1CN(C1CCC(=O)NC1=O)C2=O (centres undefined)
Solution: 95

Exercise: Data request, read-out residual activity, for CCn1c(-c2nonc2N)nc2cncc(CNC3CCNCC3)c21
Solution: 92

Exercise: Data request, read-out residual activity, for CNc1nc(-c2ccc3c(N)n[nH]c3c2)cc(N2C[C@@H](C(=O)NC3CCCCC3)CC[C@H]2C)n1
Solution: 101

Exercise: Data request, read-out residual activity, for Cc1cc(NC(=O)c2cccc(NC(=O)/C=C/CN(C)C)c2)ccc1Nc1nccc(-c2cccnc2)n1
Solution: 100

Exercise: Data request, read-out residual activity, for CC(C)(C#N)c1ccc(N2C(=O)OCc3cnc4ccc(-c5cnc6ccccc6c5)cc4c32)cc1
Solution: 84

Exercise: Data request, read-out residual activity, for CCNc1nc(Nc2cc(F)c(C(=O)N3CCOCC3)cc2OC)ncc1C(F)(F)F
Solution: 104

Exercise: Data request, read-out residual activity, for O=C(NCCCNc1nc(Nc2cccc(CN3CCOCC3)c2)ncc1C1CC1)C1CCC1
Solution: 108

Exercise: Data request, read-out residual activity, for Cc1ccc(-c2ccc3c(ccc4sc5c(c43)NC[C@@H](C)NC5=O)n2)cn1
Solution: 107

Exercise: Data request, read-out residual activity, for O=C(N[C@@H](COc1ccc2[nH]c(=O)[nH]c2c1)c1ccccc1)c1cccn(Cc2ccc(F)c(F)c2)c1=O
Solution: 103

Exercise: Data request, read-out residual activity, for NC(=O)c1cc(-c2ccnc(NC3CCCCC3)c2)nc(N2CCNCC2)c1
Solution: 107

Exercise: Data request, read-out residual activity, for CNC(=O)C1[C@H]2O[C@@](C)([C@@H]1N)n1c3ccccc3c3c4c(c5c6ccccc6n2c5c31)C(=O)NC4 (some centres undefined)
Solution: 6

Exercise: Data request, read-out residual activity, for COc1ccc(-n2ncc3cnc(Nc4cc(OC)c(OC)c(OCCCN5CCN(C)CC5)c4)nc32)cc1
Solution: 39

Exercise: Data request, read-out residual activity, for CC1=C(CO)C(=O)O[C@@H]([C@@H](C)[C@H]2CC[C@H]3[C@@H]4C[C@H]5O[C@]56[C@@H](O)C=CC(=O)[C@]6(C)C4CC[C@]23C)C1 (some centres undefined)
Solution: 103
